Tested on: Human Whole Blood
Assay: Cytokine release in human whole blood (ELISA)
Format: cell-based
Conditions: TNF-alpha release; compounds tested at 10 μM; compared to 10 ng/ml LPS; 3-hour incubation
# TNF-alpha release in whole blood at 10 μM compound (% of 10 ng/ml LPS response) values compiled below
quantity.name: TNF-alpha release in whole blood at 10 μM compound (% of 10 ng/ml LPS response)

- compound: "CCCCCC/C=C\\CCCC(=O)O[C@H](CCCCCCC)CCOCC(COP(=O)([O-])OCCNC(=O)C(Cc1ccc(OCCNC(=O)OC(C)(C)C)cc1)C(=O)NCCOP(=O)([O-])OCC(COCC[C@@H](CCCCCCC)OC(=O)CCC/C=C\\CCCCCC)NC(=O)CCCCCCCCCCCCC)NC(=O)CCCCCCCCCCCCC.[Na+].[Na+] (stereo partly shown)"
  result.value: "2 ± 2 (n = 2) % of LPS"
- compound: "CCCCCC/C=C\\CCCC(=O)O[C@H](CCCCCCC)CC(=O)NC(COCC[C@H](O)CCCCCCC)COP(=O)([O-])OCCNC(=O)c1ccccc1C(=O)NCCOP(=O)([O-])OCC(COCC[C@H](O)CCCCCCC)NC(=O)C[C@@H](CCCCCCC)OC(=O)CCC/C=C\\CCCCCC.[Na+].[Na+] (stereo partly shown)"
  result.value: "0 % of LPS"
- compound: "CCCCCCCCCCCCCC(=O)NC(COCC[C@@H](CCCCCCC)OC(=O)CCCCCCCCCCC)COP(=O)([O-])OCCNC(=O)CC(=O)NCCOP(=O)([O-])OCC(COCC[C@@H](CCCCCCC)OC(=O)CCCCCCCCCCC)NC(=O)CCCCCCCCCCCCC.[Na+].[Na+] (stereo partly shown)"
  result.value: "151 ± 42 % of LPS"
- compound: "CCCCCC/C=C\\CCCC(=O)O[C@H](CCCCCCC)CC(=O)NC(COCC[C@H](O)CCCCCCC)COP(=O)([O-])OCCNC(=O)c1cc(O)cc(C(=O)NCCOP(=O)([O-])OCC(COCC[C@H](O)CCCCCCC)NC(=O)C[C@@H](CCCCCCC)OC(=O)CCC/C=C\\CCCCCC)c1.[Na+].[Na+] (stereo partly shown)"
  result.value: "0 % of LPS"

====

# TNF-alpha release in whole blood at 10 μM compound (% of 10 ng/ml LPS response) values compiled below
Test system: Human Whole Blood
Experiment: Cytokine release in human whole blood (ELISA)
Format: cell-based
Conditions: TNF-alpha release; compounds tested at 10 μM; compared to 10 ng/ml LPS; 3-hour incubation
quantity.name: TNF-alpha release in whole blood at 10 μM compound (% of 10 ng/ml LPS response)

- compound: "CCCCCC/C=C\\CCCC(=O)O[C@H](CCCCCCC)CCOCC(COP(=O)([O-])OCCNC(=O)NCCOP(=O)([O-])OCC(COCC[C@@H](CCCCCCC)OC(=O)CCC/C=C\\CCCCCC)NC(=O)C[C@@H](CCCCCCC)OC(=O)CCC/C=C\\CCCCCC)NC(=O)C[C@@H](CCCCCCC)OC(=O)CCC/C=C\\CCCCCC.[Na+].[Na+] (stereo partly drawn)"
  result.value: "0 % of LPS"
- compound: "CCCCCC/C=C\\CCCC(=O)O[C@H](CCCCCCC)CCOCC(COP(=O)([O-])OCCNC(=O)CC(=O)NCCOP(=O)([O-])OCC(COCC[C@@H](CCCCCCC)OC(=O)CCC/C=C\\CCCCCC)NC(=O)CCCCCCCCCCCCC)NC(=O)CCCCCCCCCCCCC.[Na+].[Na+] (stereo partly drawn)"
  result.value: "159 % of LPS"
- compound: "CCCCCC/C=C\\CCCC(=O)O[C@H](CCCCCCC)CCOCC(COP(=O)([O-])OCCNC(=O)NCCOP(=O)([O-])OCC(COCC[C@@H](CCCCCCC)OC(=O)CCC/C=C\\CCCCCC)NC(=O)CC(=O)CCCCCCCCCCC)NC(=O)CC(=O)CCCCCCCCCCC.[Na+].[Na+] (stereo partly drawn)"
  result.value: "158 % of LPS"

Cited source for all entries: patent US7915238B2
